system: HT-29; test: Cytotoxicity against human HT-29 cells after 6 days by MTT assay; format: functional, cell-based; conditions: HT-29, 144 h
Recorded IC50 determines the group label, using lower bin: < 20 µM; middle bin: ≥ 20 µM and < 40 µM; upper bin: ≥ 40 µM

[ask] Field: class (IC50) — entry: COc1ccc(Cn2cc(CN3C(=O)COc4ccccc43)nn2)cc1
[reply] lower bin

[ask] Field: class (IC50) — entry: O=C1COc2ccccc2N1Cc1cn(CCC2OCCO2)nn1
[reply] lower bin

[ask] Field: class (IC50) — entry: O=C1COc2cccnc2N1Cc1cn(Cc2ccccc2)nn1
[reply] lower bin

[ask] Field: class (IC50) — entry: O=C1COc2ccccc2N1Cc1cn(CCc2ccccc2)nn1
[reply] upper bin

[ask] Field: class (IC50) — entry: CCOC(=O)Cn1cc(CN2C(=O)COc3ccccc32)nn1
[reply] middle bin

[ask] Field: class (IC50) — entry: Cc1ccc(Cn2cc(CN3C(=O)COc4ccccc43)nn2)cc1
[reply] middle bin

[ask] Field: class (IC50) — entry: O=C1COc2ccccc2N1Cc1cn(CCc2c[nH]c3ccccc23)nn1
[reply] lower bin

[ask] Field: class (IC50) — entry: O=C1COc2cc(F)ccc2N1Cc1cn(Cc2ccccc2)nn1
[reply] upper bin

[ask] Field: class (IC50) — entry: CC(C)(C)c1ccc(Cn2cc(CN3C(=O)COc4ccccc43)nn2)cc1
[reply] middle bin

[ask] Field: class (IC50) — entry: COc1ccc2c(c1)OCC(=O)N2Cc1cn(Cc2ccccc2)nn1
[reply] lower bin

[ask] Field: class (IC50) — entry: O=C1COc2ccc(F)cc2N1Cc1cn(Cc2ccccc2)nn1
[reply] upper bin

[ask] Field: class (IC50) — entry: O=C1COc2ccccc2N1Cc1cn(Cc2ccc(Cl)cc2)nn1
[reply] middle bin

[ask] Field: class (IC50) — entry: COc1ccc2c(c1)N(Cc1cn(Cc3ccccc3)nn1)C(=O)CO2
[reply] upper bin

[ask] Field: class (IC50) — entry: O=C1COc2ccccc2N1Cc1cn(Cc2ccc3ccccc3n2)nn1
[reply] upper bin

[ask] Field: class (IC50) — entry: CCOC(=O)c1ccc2c(c1)N(Cc1cn(Cc3ccccc3)nn1)C(=O)CO2
[reply] upper bin

[ask] Field: class (IC50) — entry: CCC1Oc2ccccc2N(Cc2cn(Cc3ccccc3)nn2)C1=O (stereo not drawn)
[reply] upper bin

[ask] Field: class (IC50) — entry: COC(=O)Cn1cc(CN2C(=O)COc3ccccc32)nn1
[reply] upper bin

[ask] Field: class (IC50) — entry: Cc1ccc2c(c1)OCC(=O)N2Cc1cn(Cc2ccccc2)nn1
[reply] upper bin

[ask] Field: class (IC50) — entry: O=C1COc2ccc(Cl)cc2N1Cc1cn(Cc2ccccc2)nn1
[reply] upper bin

[ask] Field: class (IC50) — entry: CCCCCCn1cc(CN2C(=O)COc3ccccc32)nn1
[reply] middle bin

[ask] Field: class (IC50) — entry: CCCC1Oc2ccccc2N(Cc2cn(Cc3ccccc3)nn2)C1=O (stereo not drawn)
[reply] upper bin

[ask] Field: class (IC50) — entry: O=C1C(c2ccccc2)Oc2ccccc2N1Cc1cn(Cc2ccccc2)nn1 (stereo not drawn)
[reply] upper bin

[ask] Field: class (IC50) — entry: O=C1COc2ccccc2N1Cc1cn(Cc2ccc([N+](=O)[O-])cc2)nn1
[reply] lower bin

[ask] Field: class (IC50) — entry: O=C1COc2ccccc2N1Cc1cn(Cc2ccccc2)nn1
[reply] upper bin

[ask] Field: class (IC50) — entry: O=C1COc2ccccc2N1Cc1cn(Cc2cccc3ccccc23)nn1
[reply] lower bin

[ask] Field: class (IC50) — entry: O=C1COc2ccccc2N1Cc1cn(C/C=C/c2ccccc2)nn1
[reply] upper bin

[ask] Field: class (IC50) — entry: Cc1ccc2c(c1)N(Cc1cn(Cc3ccccc3)nn1)C(=O)CO2
[reply] upper bin

----------
system: Hep 3B2; experiment: Cytotoxicity against human Hep3B cells after 6 days by MTT assay; type: functional, cell-based; conditions: 144 h
Provide the recorded pIC50 for the entries that follow.
Scale for pIC50: -log10 of concentration given in mol/L; no unit attached.

[ask] Query pIC50 for O=C1COc2ccccc2N1Cc1cn(CCC2OCCO2)nn1
[reply] 6.30

[ask] Query pIC50 for CC(C)(C)c1ccc(Cn2cc(CN3C(=O)COc4ccccc43)nn2)cc1
[reply] 4.59

[ask] Query pIC50 for COc1ccc2c(c1)OCC(=O)N2Cc1cn(Cc2ccccc2)nn1
[reply] 5.04

----------
system: Hep 3B2; assay: Cytotoxicity against human Hep3B cells after 48 hrs by MTT assay; format: functional, cell-based
Provide the recorded pIC50 for the entries that follow.
Scale for pIC50: -log10 of concentration given in mol/L; no unit attached.

[ask] Query pIC50 for CNC(=O)c1cc(Oc2ccc(NC(=O)Nc3ccc(Cl)c(C(F)(F)F)c3)cc2)ccn1
[reply] 4.95

[ask] Query pIC50 for O=C1COc2ccccc2N1Cc1cn(CCC2OCCO2)nn1
[reply] 4.77

----------
test: Growth inhibition of HUVEC at 50 uM after 24 hrs by MTT assay relative to control; format: cell-based; conditions: human, HUVEC cells; read-out: GI
Endpoint: inhibition at 24 h, 50 µM

[ask] Query inhibition at 24 h, 50 µM for CNC(=O)c1cc(Oc2ccc(NC(=O)Nc3ccc(Cl)c(C(F)(F)F)c3)cc2)ccn1
[reply] 60%

[ask] Query inhibition at 24 h, 50 µM for O=C1COc2ccccc2N1Cc1cn(CCC2OCCO2)nn1
[reply] 21.5%
